# testSystem: wt-BTK (Homo sapiens (Human))
# Sequence (Q06187 whole entry): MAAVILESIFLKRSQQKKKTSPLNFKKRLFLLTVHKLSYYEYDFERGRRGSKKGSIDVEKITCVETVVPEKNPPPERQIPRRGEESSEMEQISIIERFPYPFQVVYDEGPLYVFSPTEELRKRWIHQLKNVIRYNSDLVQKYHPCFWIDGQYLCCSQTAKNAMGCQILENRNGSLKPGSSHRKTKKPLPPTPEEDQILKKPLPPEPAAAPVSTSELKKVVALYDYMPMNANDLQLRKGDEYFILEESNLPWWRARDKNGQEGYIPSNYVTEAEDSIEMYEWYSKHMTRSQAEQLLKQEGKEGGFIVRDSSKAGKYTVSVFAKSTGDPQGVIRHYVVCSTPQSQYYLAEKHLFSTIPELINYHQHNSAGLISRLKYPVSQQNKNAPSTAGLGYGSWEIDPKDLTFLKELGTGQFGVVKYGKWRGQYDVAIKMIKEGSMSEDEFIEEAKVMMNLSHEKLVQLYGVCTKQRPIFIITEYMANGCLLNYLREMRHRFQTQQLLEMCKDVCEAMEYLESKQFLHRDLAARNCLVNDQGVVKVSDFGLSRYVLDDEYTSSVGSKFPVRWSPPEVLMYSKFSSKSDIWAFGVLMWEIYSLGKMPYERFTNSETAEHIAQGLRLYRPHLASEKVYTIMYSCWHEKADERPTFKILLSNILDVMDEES
# experimentalProtocol: Binding kinetics measurements (Surface Plasmon Resonance) on wt-BTK
# conditions: target residence time, SPR
recordedMetric: Tau (h) wt-BTK (Act)

>  <compound>
Nc1ncc2n3c(nc(-c4ccc(C(=O)Nc5cc(C(F)F)ccn5)cc4)c13)[C@@H]1CC[C@H](C1)NC(=O)CCOCC/C=C/2 [Example 222]

>  <unitAbbreviation>
h

>  <Tau (h) wt-BTK (Act)>
5.31

$$$$
>  <compound>
C[C@@H]1CC(=O)N[C@@H]2CCC[C@H](C2)n2nc(-c3ccc(C(=O)Nc4cc(C(F)(F)F)ccn4)cc3)c3c(N)ncc(c32)/C=C/CCO1 [Example 157]

>  <unitAbbreviation>
h

>  <Tau (h) wt-BTK (Act)>
5.15

$$$$
>  <compound>
C[C@@H]1CCn2nc(-c3ccc(C(=O)Nc4cc(C(F)(F)F)ccn4)cc3)c3c(N)ncc(c32)/C=C/COCCC(=O)N1 [Example 71]

>  <unitAbbreviation>
h

>  <Tau (h) wt-BTK (Act)>
7.08

$$$$
>  <compound>
Nc1ncc2c3c1c(-c1ccc(C(=O)Nc4cc(C(F)(F)F)ccn4)cc1)nn3[C@@H]1CCC[C@H](C1)NC(=O)COCC/C=C/2 [Example 6]

>  <unitAbbreviation>
h

>  <Tau (h) wt-BTK (Act)>
6.80

$$$$

1. N#Cc1ccnc(NC(=O)c2ccc(-c3nc4n5c(cnc(N)c35)/C=C/CCCCCC(=O)N[C@@H]3CCC[C@@H]4C3)cc2)c1 [Example 184]
2. C[C@@H]1CC(=O)N[C@@H]2CCC[C@H](C2)n2nc(-c3ccc(C(=O)Nc4cc(C(F)(F)F)ccn4)cc3)c3c(N)ncc(c32)/C=C/CN1C [Example 44]
Ask: Which value of Tau (h) wt-BTK (Act) is greater, the one for 1 or the one for 2 ? Return value: the label identifying the chosen record.
Result: 1

###

# testSystem: full-length BTK C481S enzyme (Homo sapiens (Human), UniProt Q06187, C481S)
# Sequence (Q06187 whole entry C481S): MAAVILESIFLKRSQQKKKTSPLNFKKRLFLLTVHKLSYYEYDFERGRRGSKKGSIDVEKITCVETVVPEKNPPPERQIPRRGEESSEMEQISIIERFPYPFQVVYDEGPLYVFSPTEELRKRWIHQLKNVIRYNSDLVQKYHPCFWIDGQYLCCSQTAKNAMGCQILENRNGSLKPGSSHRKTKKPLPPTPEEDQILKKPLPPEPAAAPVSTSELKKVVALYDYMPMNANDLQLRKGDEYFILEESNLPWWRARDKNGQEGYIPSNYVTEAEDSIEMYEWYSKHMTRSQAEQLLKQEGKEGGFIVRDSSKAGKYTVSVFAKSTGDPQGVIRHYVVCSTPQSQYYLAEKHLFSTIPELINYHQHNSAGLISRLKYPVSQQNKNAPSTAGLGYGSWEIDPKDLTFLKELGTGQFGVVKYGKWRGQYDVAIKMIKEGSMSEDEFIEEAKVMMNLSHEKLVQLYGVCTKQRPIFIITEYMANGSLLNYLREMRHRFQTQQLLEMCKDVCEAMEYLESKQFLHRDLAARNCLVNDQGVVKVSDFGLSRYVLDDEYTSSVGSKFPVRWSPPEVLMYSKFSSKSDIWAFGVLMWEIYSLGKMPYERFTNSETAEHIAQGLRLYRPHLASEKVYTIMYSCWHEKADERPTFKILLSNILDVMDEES
# experimentalProtocol: Biochemical kinase assay BTK C481S (IMAP)
pIC50: −log10 of the molar value.
Item-by-item account of pIC50

Below: 2 compounds and their reported pIC50.
>  <compound>
Nc1ncc2c3c1c(-c1ccc(C(=O)Nc4cc(C(F)(F)F)ccn4)cc1)nn3[C@@H]1CCC[C@H](C1)NC(=O)CCNCCCC2

>  <testSystem>
full-length BTK C481S enzyme (Homo sapiens (Human), UniProt Q06187, C481S)

>  <result>
> 8.30

$$$$
>  <compound>
Nc1ncc2c3c1c(-c1ccc(C(=O)Nc4cc(C(F)(F)F)ccn4)cc1)nn3[C@@H]1CCCN(C1)C(=O)CCCCCCC/C=C/2

>  <testSystem>
full-length BTK C481S enzyme (Homo sapiens (Human), UniProt Q06187, C481S)

>  <result>
> 8.30

$$$$

Lab note: next compound to report on.
Ask: pIC50 lookup needed for Nc1ncc2c3c1c(-c1ccc(C(=O)Nc4cc(C(F)(F)F)ccn4)cc1)nn3[C@@H]1CCCN(C1)C(=O)CCCCCC(O)/C=C/2 (stereo partly drawn) , thanks.
Result: > 8.30

###

# testSystem: full-length BTK C481S enzyme (Homo sapiens (Human), UniProt Q06187, C481S)
# experimentalProtocol: Biochemical kinase assay BTK C481S (IMAP)
pIC50: −log10 of the molar value.
pIC50 listing for selected compounds.

Here is how some compounds turned out for pIC50.
>  <compound>
C[C@@H]1CCn2nc(-c3ccc(C(=O)Nc4cc(C(F)(F)F)ccn4)cc3)c3c(N)ncc(c32)/C=C/C[C@@H](C)OCCC(=O)N1 [Example 72]

>  <testSystem>
full-length BTK C481S enzyme (Homo sapiens (Human), UniProt Q06187, C481S)

>  <result>
> 8.30

$$$$
>  <compound>
C[C@@H]1CCn2nc(-c3ccc(C(=O)Nc4cc(C(F)(F)F)ccn4)cc3)c3c(N)ncc(c32)/C=C/CCN2CC[C@H]2C(=O)N1 [Example 68]

>  <testSystem>
full-length BTK C481S enzyme (Homo sapiens (Human), UniProt Q06187, C481S)

>  <result>
> 8.30

$$$$
>  <compound>
C[C@@H]1CCn2nc(-c3ccc(C(=O)Nc4cc(C(F)(F)F)ccn4)cc3)c3c(N)ncc(c32)CC=CCCCCCC(=O)N1 [Example 111]

>  <testSystem>
full-length BTK C481S enzyme (Homo sapiens (Human), UniProt Q06187, C481S)

>  <result>
7.30 to 8.30

$$$$
>  <compound>
Nc1ncc2c3c1c(-c1ccc(C(=O)Nc4ccccn4)cc1)nn3C1CCC[C@H](C1)NC(=O)CCCCC/C=C/2 [Example 24]

>  <testSystem>
full-length BTK C481S enzyme (Homo sapiens (Human), UniProt Q06187, C481S)

>  <result>
> 8.30

$$$$
>  <compound>
Nc1ncc2c3c1c(-c1ccc(C(=O)Nc4cc(C(F)(F)F)ccn4)cc1)nn3[C@@H]1CCC[C@H](C1)NC(=O)C1CCN1CC/C=C/2 (stereo partly shown) [Example 34]

>  <testSystem>
full-length BTK C481S enzyme (Homo sapiens (Human), UniProt Q06187, C481S)

>  <result>
> 8.30

$$$$

Ask: // lookup pIC50 | system=full-length BTK C481S enzyme (Homo sapiens (Human), UniProt Q06187, C481S) | key= C[C@@H]1CCn2nc(-c3ccc(C(=O)Nc4cc(C(F)(F)F)ccn4)cc3)c3c(N)ncc(c32)/C=C/CCCCCC(=O)N1 [Example 60]
Result: > 8.30

Ask: Provide the documented pIC50 with full-length BTK C481S enzyme (Homo sapiens (Human), UniProt Q06187, C481S) as the system for Nc1ncc2c3c1c(-c1ccc(C(=O)Nc4cc(C(F)(F)F)ccn4)cc1)nn3[C@@H]1CCC[C@H](C1)NC(=O)CCOCC/C=C/2 [Example 26]
Result: > 8.30

Ask: pIC50 of Nc1ncc2c3c1c(-c1ccc(C(=O)Nc4cc(C(F)(F)F)ccn4)cc1)nn3[C@@H]1CCC[C@H](C1)C(=O)NCCCCCCC2 [Example 115] on full-length BTK C481S enzyme (Homo sapiens (Human), UniProt Q06187, C481S)?
Result: > 8.30

Ask: # returns recorded pIC50 (system: full-length BTK C481S enzyme (Homo sapiens (Human), UniProt Q06187, C481S)) for Nc1ncc2c3c1c(-c1ccc(C(=O)Nc4ccccn4)cc1)nn3[C@@H]1CCC[C@H](C1)NC(=O)CCCC/C=C/2 [Example 23]
Result: > 8.30

Ask: Tell me reported pIC50 for Nc1ncc2c3c1c(-c1ccc(C(=O)Nc4cc(C(F)(F)F)ccn4)cc1)nn3[C@@H]1CCC[C@H](C1)C(=O)NCCCC/C=C/2 [Example 1] , tested with full-length BTK C481S enzyme (Homo sapiens (Human), UniProt Q06187, C481S).
Result: > 8.30

Ask: Request: pIC50, test system full-length BTK C481S enzyme (Homo sapiens (Human), UniProt Q06187, C481S), entry Nc1ncc2c3c1c(-c1ccc(C(=O)Nc4ccccn4)cc1)nn3[C@@H]1CCC[C@H](C1)NC(=O)CC/C=C\C2 [Example 96b]
Result: 7.30 to 8.30

Ask: // map Nc1ncc2c3c1c(-c1ccc(C(=O)Nc4cc(C(F)(F)F)ccn4)cc1)nn3[C@@H]1COC[C@H](C1)NC(=O)CCOC/C=C/2 [Example 192] to recorded pIC50 (system: full-length BTK C481S enzyme (Homo sapiens (Human), UniProt Q06187, C481S))
Result: > 8.30

Ask: Form entry - test system: full-length BTK C481S enzyme (Homo sapiens (Human), UniProt Q06187, C481S); read-out: pIC50; compound: Nc1ncc2c3c1c(-c1ccc(C(=O)Nc4ccccn4)cc1)nn3[C@@H]1CCC[C@H](C1)NC(=O)CCCC/C=C/C2 [Example 100a]
Result: 6.30 to 7.30

###

# testSystem: UniProt:Q06187
# experimentalProtocol: Binding kinetics measurements (Surface Plasmon Resonance) on wt-BTK
# conditions: target residence time, SPR
recordedMetric: Tau (h) wt-BTK (Act)

Some entries whose results are on file:
>  <compound>
COc1ccc(F)cc1C(=O)NCc1ccc(-c2nn3c4c(cnc(N)c24)/C=C/CO[C@H](C)C(=O)N[C@@H]2CCC[C@@H]3C2)cc1

>  <unitAbbreviation>
h

>  <Tau (h) wt-BTK (Act)>
0.89

$$$$
>  <compound>
Nc1ncc2c3c1c(-c1ccc(C(=O)Nc4cc(C(F)(F)F)ccn4)cc1)nn3[C@@H]1CN[C@H](C1)C(=O)NCCCCC/C=C/2

>  <unitAbbreviation>
h

>  <Tau (h) wt-BTK (Act)>
3.59

$$$$
>  <compound>
Nc1ncc2n3c(nc(-c4ccc(C(=O)Nc5cc(C(F)(F)F)ccn5)cc4)c13)C1CCC[C@H](C1)NC(=O)CCC/C=C\C2 [Example 133b]

>  <unitAbbreviation>
h

>  <Tau (h) wt-BTK (Act)>
4.39

$$$$

A. Nc1ncc2c3c1c(-c1ccc(C(=O)Nc4ccccn4)cc1)nn3C1CCC[C@H](C1)NC(=O)CCCCC/C=C/2
B. NC(=O)[C@H]1CCN(c2ncnc(N)c2F)C[C@@H]1N1CCC[C@@H](Nc2cc(Cl)cc(C(F)(F)F)c2)C1=O [vecabrutinib, reference compound]
Ask: Hi team, can someone confirm which has the larger Tau (h) wt-BTK (Act): A or B ? Thanks. Kindly state the label of the option you pick.
Result: A
(A: 4.78 h, B: 0.18 h)
